Molecular target: VAV1 (Homo sapiens, UniProt P15498+Q96SW2)
Construct: A heterozygous VAV1 C-terminal HiBiT knock-in pool was generated at Monte Rosa Therapeutics from a clonal Jurkat cell; endogenous in cells; host or cells: Jurkat clone stably expressing LgBiT, homozygous GSPT1-G575N; heterozygous VAV1-HiBiT knock-in pool
Assay: VAV1 degradation activity, VAV1-HiBiT knock-in Jurkat luminescence assay (Example A, Table 1)
Assay type: cell-based
Details: VAV1-HiBiT knock-in Jurkat cells, luminescence read at 6 and 24 hours; read-out: VAV1 DC50 (nM), class
Description: Cells were plated at 10,000 cells per well using Multiflo (BioTek) or Multi Drop Combi (Thermo Fisher) in 384-well white solid bottom plates (Corning, 3570BC) in 25 ul volume in RPMI 1640 media (Thermo Fischer, 22400105) containing 10% FBS (Corning, 35-075-CV), 1% Penicillin/Streptomycin (ThermoFisher Scientific, 15140-122), and 1% Endurazine (Nano-Glo Endurazine Live Cell Substrate (Promega, N2571)). Cells were incubated for ˜16 hours at 37° C., 5% CO2. […]
Property name: DC50

O=C1CCC(c2cccc(-c3ccc(CN4C(=O)CC45CCC5)cc3)c2Cl)C(=O)N1 (stereo not drawn) [Compound 279]
≤ 100 nM
O=C1CCC(c2cccc(-c3ccc(Cc4nccc(C(F)(F)F)n4)cc3)c2Cl)C(=O)N1 (stereo not drawn) [Compound 347]
≤ 100 nM
CN1CC2(CCC(=O)N2c2ccc(-c3cccc(C4CCC(=O)NC4=O)c3Cl)cc2)C1 (stereo not drawn) [Compound 371]
> 1000 nM
Cn1cnc(Cn2ncc3cc(-c4cccc(C5CCC(=O)NC5=O)c4Cl)ccc32)c1 (stereo not drawn) [Compound 397]
≤ 100 nM

State its DC50 on VAV1 (Homo sapiens, UniProt P15498+Q96SW2): CN1CC(=O)N(Cc2ccc(-c3cccc(C4CCC(=O)NC4=O)c3Cl)cc2)CC1(C)C (stereo not drawn) [Compound 257]
≤ 100 nM

Quick one: O=C1CCC(c2cccc(-c3cccc(CC4CCC(F)C(=O)N4)c3)c2Cl)C(=O)N1 (stereo not drawn) [Compound 270]
≤ 100 nM

Quick one: O=C1CCC(c2cccc(-c3ccc(CN4CCCCC4=O)nc3)c2Cl)C(=O)N1 (stereo not drawn) [Compound 433]
> 1000 nM

Quick one: COC1CCCC(=O)N1c1ccc(-c2cccc(C3CCC(=O)NC3=O)c2Cl)cc1 (stereo not drawn) [Compound 318]
≤ 100 nM

Quick one: COC1(CN2C(=O)Cc3cc(-c4cccc(C5CCC(=O)NC5=O)c4Cl)ccc32)CC1 (stereo not drawn) [Compound 391]
> 1000 nM

---

Target: VAV1 (Homo sapiens, UniProt P15498+Q96SW2)
Construct: A heterozygous VAV1 C-terminal HiBiT knock-in pool was generated at Monte Rosa Therapeutics from a clonal Jurkat cell; endogenous in cells; host or cells: Jurkat clone stably expressing LgBiT, homozygous GSPT1-G575N; heterozygous VAV1-HiBiT knock-in pool
Assay: VAV1 degradation activity, VAV1-HiBiT knock-in Jurkat luminescence assay (Example A, Table 1)
Assay type: cell-based
Conditions: VAV1-HiBiT knock-in Jurkat cells, luminescence read at 6 and 24 hours; read-out: VAV1 DC50 (nM), class
Property name: DC50

State its DC50 on VAV1 (Homo sapiens, UniProt P15498+Q96SW2): O=C1CCC(c2cccc(-c3ccc(N4CCCC4=O)cc3)c2Cl)C(=O)N1 (centres unmarked)
100 to 1000 nM

Quick one: O=C1CCC(c2cccc(-c3ccc(Cc4cnccn4)cc3)c2Cl)C(=O)N1 (centres unmarked)
≤ 100 nM
